# assayed target: HIF-2α HIS TAG-PASB Domain (Homo sapiens, UniProt Q99814)
# Construct: 100 nM HIF-2α HIS TAG-PASB Domain
# Sequence (Q99814 240-350 limits assumed): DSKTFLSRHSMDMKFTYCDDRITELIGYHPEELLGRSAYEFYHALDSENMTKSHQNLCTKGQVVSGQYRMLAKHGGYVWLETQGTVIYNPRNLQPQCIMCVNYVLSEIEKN
# assay remarks: HIF-2α Scintillation Proximity Assay (SPA)
# Format: binding
# measurement parameters: read-out: Scintillation Proximity Assay IC50
# Procedure: The total assay volume was about 100 μL in the following configuration: 2 μL compound in 100% DMSO, 88 μL buffer with protein and probe and 10 μL of SPA beads. […] The percent inhibition was determined and IC50 values were calculated using the Dotmatics system based on the following equation: % inhibition=[(high control−sample)/(high control−low control)]×100.
pIC50: −log10 of the molar value.
Reported pIC50 values follow for various compounds

Worked cases, pIC50 given:
compound | assayed target | result
O=C(O)Cc1ccc(S(=O)(=O)C(F)(F)F)c2c1CC[C@H]2O | HIF-2α HIS TAG-PASB Domain (Homo sapiens, UniProt Q99814) | < 6.00
O=S(=O)(c1ccc(Oc2cc(F)cc(F)c2)c2c1C(CO)CC2)C(F)F (centres unmarked) | HIF-2α HIS TAG-PASB Domain (Homo sapiens, UniProt Q99814) | 6.00 to 6.60
N#Cc1c(Oc2cc(F)cc(Cl)c2)ccc(S(=O)(=O)C(F)F)c1CO | HIF-2α HIS TAG-PASB Domain (Homo sapiens, UniProt Q99814) | < 6.00
O=S(=O)(c1ccc(OC2CCC2)c2c1C(O)CC2)C(F)(F)F (centres unmarked) | HIF-2α HIS TAG-PASB Domain (Homo sapiens, UniProt Q99814) | 6.00 to 6.60

Here's the next entry for you.
Exam item: Value lookup for pIC50; key = O=S(=O)(c1ccc(O[C@@H]2CCCc3cn[nH]c32)c2c1[C@H](O)C(F)(F)C2)C(F)(F)F
Marked response: < 6.00

###

Reported pIC50 values follow for various compounds
# assayed target: HIF-2α HIS TAG-PASB Domain (Homo sapiens, UniProt Q99814)
# Construct: 100 nM HIF-2α HIS TAG-PASB Domain
# assay remarks: HIF-2α Scintillation Proximity Assay (SPA)
# Assay type: binding
# measurement parameters: read-out: Scintillation Proximity Assay IC50
pIC50: −log10 of the molar value.

Worked cases, pIC50 given:
compound | result
O=S(=O)(c1ccc(Oc2ccc(F)c(Cl)c2)c2c1[C@H](O)C(F)(F)C2)C(F)(F)F | > 7.30
CNC(=O)C(C)Oc1ccc(S(=O)(=O)C(F)(F)F)c2c1CC(F)(F)C2O (stereo not drawn) | < 6.00
CN(C)C(=O)COc1ccc(S(=O)(=O)C(F)(F)F)c2c1CC(F)(F)C2O (stereo not drawn) | < 6.00
O=S(=O)(c1ccc(Oc2cc(F)cc(Cl)c2)c(Cl)c1CNC1CCOCC1)C(F)F | 6.00 to 6.60

Exam item: What is its pIC50 for HIF-2α HIS TAG-PASB Domain (Homo sapiens, UniProt Q99814)? Entry: N#Cc1cncc(Oc2ccc(S(N)(=O)=O)c3c2CC(F)(F)[C@H]3O)c1
Marked response: < 6.00

Exam item: What is its pIC50 for HIF-2α HIS TAG-PASB Domain (Homo sapiens, UniProt Q99814)? Entry: CS(=O)(=NC#N)c1ccc(Oc2cc(F)cc(C#N)c2)c2c1[C@H](O)C(F)(F)[C@H]2F (stereo partly drawn)
Marked response: < 6.00

Exam item: What is its pIC50 for HIF-2α HIS TAG-PASB Domain (Homo sapiens, UniProt Q99814)? Entry: O=S(=O)(c1ccc(Oc2ccc(F)c(F)c2)c2c1[C@H](O)C(F)(F)C2)C(F)F
Marked response: > 7.30

Exam item: What is its pIC50 for HIF-2α HIS TAG-PASB Domain (Homo sapiens, UniProt Q99814)? Entry: CS(=O)(=NC#N)c1ccc(Oc2cncc(C#N)c2)c2c1[C@H](O)C(F)(F)[C@@H]2F (stereo partly drawn)
Marked response: > 7.30

###

# assayed target: HIF-2α HIS TAG-PASB Domain (Homo sapiens)
# Construct: 100 nM HIF-2α HIS TAG-PASB Domain
# assay remarks: HIF-2α Scintillation Proximity Assay (SPA)
# Format: binding
# measurement parameters: read-out: Scintillation Proximity Assay IC50
reported metric: IC50

compound | reported metric | result
CC1(C)C[C@@H](O)C[C@@H](c2ccc(S(=O)(=O)C(F)(F)F)c3c2CC(F)(F)[C@H]3O)C1 | IC50 | < 50 nM
CC(C)(C)OC(=O)N1CC(Oc2ccc(S(=O)(=O)C(F)(F)F)c3c2CC(F)(F)[C@H]3O)C1 | IC50 | > 1000 nM
Cc1c([S+]([O-])C(F)F)ccc(Oc2cc(F)cc(Cl)c2)c1C#N (stereo not shown) | IC50 | > 1000 nM

Exam item: Value lookup for IC50; key = O=S(=O)(c1ccc(Oc2cc(F)cc(Cl)c2)c(Cl)c1CCl)C(F)F
Marked response: 250 to 1000 nM

Exam item: Value lookup for IC50; key = N#Cc1cc(F)cc(Oc2ccc(S(=O)(=O)C(F)(F)F)c3c2CC(F)C3N)c1 (stereo not shown) [Compound 265]
Marked response: 50 to 249 nM

Exam item: Value lookup for IC50; key = CN1CCCC(Oc2ccc(S(=O)(=O)C(F)(F)F)c3c2CC(F)(F)C3O)C1 (stereo not shown)
Marked response: > 1000 nM

Exam item: Value lookup for IC50; key = CC(Oc1ccc(S(C)(=O)=O)c2c1[C@@H](F)C(F)(F)[C@H]2O)C(F)F (stereo partly shown)
Marked response: < 50 nM

Exam item: Value lookup for IC50; key = O=S(=O)(c1ccc(Oc2cc(F)cc(F)c2)c(Cl)c1CO)C(F)F
Marked response: < 50 nM

Exam item: Value lookup for IC50; key = O=S(=O)(c1ccc(OC2CCCC2)c2c1C(O)C(F)(F)C2)C(F)(F)F (stereo not shown)
Marked response: < 50 nM

Exam item: Value lookup for IC50; key = O=S(=O)(c1ccc(O[C@@H]2CCCOC2)c2c1[C@H](O)C(F)(F)C2)C(F)(F)F
Marked response: 50 to 249 nM

###

# assayed target: HIF-2α HIS TAG-PASB Domain (Homo sapiens, UniProt Q99814)
# Construct: 100 nM HIF-2α HIS TAG-PASB Domain
# assay remarks: HIF-2α Scintillation Proximity Assay (SPA)
# Type: binding
# measurement parameters: read-out: Scintillation Proximity Assay IC50
Reported IC50 values follow for various compounds

Worked cases, IC50 given:
compound | result
O=S(=O)(CF)c1ccc(Oc2cncc(Cl)c2)c2c1[C@H](O)C(F)(F)C2 | 50 to 249 nM
O=[N+]([O-])c1c(Oc2cccc(Cl)c2)ccc(C(F)(F)F)c1Cl | 50 to 249 nM
N#CCS(=O)(=O)c1ccc(Oc2cc(F)cc(F)c2)c2c1C(O)CC2 (centres unmarked) | > 1000 nM
NC(=O)Cc1ccc(S(=O)(=O)C(F)(F)F)c2c1CC(F)(F)C2O (centres unmarked) | > 1000 nM

Here's the next entry for you.
Exam item: Value lookup for IC50; key = C[C@]1(C#N)C[C@H](Oc2ccc(S(=O)(=O)C(F)(F)F)c3c2CC(F)(F)[C@H]3O)C1
Marked response: 50 to 249 nM

###

Reported IC50 values follow for various compounds
# assayed target: HIF-2α HIS TAG-PASB Domain (Homo sapiens, UniProt Q99814)
# Construct: 100 nM HIF-2α HIS TAG-PASB Domain
# assay remarks: HIF-2α Scintillation Proximity Assay (SPA)
# Format: binding
# measurement parameters: read-out: Scintillation Proximity Assay IC50

compound | IC50
Cc1cc(Oc2ccc(S(=O)(=O)C(F)F)c3c2CC(F)(F)C3=O)ccc1F | 250 to 1000 nM
O=S(=O)(c1ccc(Nc2cncc(Cl)c2)c2c1C(O)CC2)C(F)(F)F (stereo not shown) | > 1000 nM
CS(=O)(=O)c1ccc(OC2CC(F)(F)C2)c2c1[C@H](O)[C@H](F)[C@@H]2F | < 50 nM

Exam item: Value lookup for IC50; key = O=S(=O)(c1ccc(Oc2cc(F)cc(F)c2)c2c1C=CC2)C(F)F
Marked response: 50 to 249 nM

###

# assayed target: HIF-2α HIS TAG-PASB Domain (Homo sapiens)
# Construct: 100 nM HIF-2α HIS TAG-PASB Domain
# assay remarks: HIF-2α Scintillation Proximity Assay (SPA)
# Assay type: binding
# measurement parameters: read-out: Scintillation Proximity Assay IC50
pIC50: −log10 of the molar value.
reported metric: pIC50

molecule | reported metric | result
CC1(C)C=C(c2ccc(S(=O)(=O)C(F)(F)F)c3c2CC(F)(F)[C@H]3O)C(=O)CC1 | pIC50 | < 6.00
O=S(=O)(c1ccc(OCC2CCC2)c2c1[C@H](O)C(F)(F)C2)C(F)(F)F | pIC50 | > 7.30
O=S(=O)(c1ccc(Cn2nccn2)c2c1[C@H](O)C(F)(F)C2)C(F)(F)F | pIC50 | < 6.00
O=S1(=O)c2ccc(Oc3cncc(F)c3)c(Br)c2[C@@H](O)C1(F)F | pIC50 | 6.00 to 6.60
CCCOc1ccc(I)c2c1CC(F)(F)C2O (centres unmarked) | pIC50 | 6.60 to 7.30

Exam item: Value lookup for pIC50; key = N#Cc1cccc(Oc2ccc(S(=O)(=O)C(F)F)c3c2CC(F)(F)[C@H]3O)c1
Marked response: > 7.30

Exam item: Value lookup for pIC50; key = C#Cc1c(Oc2cc(F)cc(C#N)c2)ccc2c1C(O)C(F)(F)S2(=O)=O (centres unmarked)
Marked response: 6.60 to 7.30

Exam item: Value lookup for pIC50; key = CC(C)Oc1ccc(S(=O)(=O)C(F)(F)F)c2c1CC(F)(F)C2O (centres unmarked)
Marked response: > 7.30
